- Tested on: OVCAR-5
- test_details: NCI tumour cell line growth inhibition, 48 h
Calls of active or inactive are those of the source. No stated cut-off is given here; in the data, active = GI50 up to about 1.1 µM and inactive = higher.
# output must be one of active, inactive

Examples from the recorded data:
Incoming: Call for entry CC1(C)C2CCC1(CS(=O)(=O)Nc1ccccc1)C(=O)C2 (stereo unspecified) :
Outgoing: inactive

Incoming: Call for entry CCCCCCCCCCCCCCCCCCNc1ccn(C2OC(COP(=O)(O)OCC3OC(n4cc(C)c(=O)[nH]c4=O)CC3O)C(O)C2O)c(=O)n1 (stereo unspecified) :
Outgoing: inactive

Incoming: Call for entry COc1cc(S(=O)(=O)Nc2ccc(-c3csc(/N=C\c4ccccc4)n3)cc2)ccc1Cl :
Outgoing: inactive

Incoming: Call for entry C=C1C(=O)OC2C1CCC(C)C1C=CC(=O)C12C (stereo unspecified) :
Outgoing: inactive

Incoming: Call for entry CN(C)CCN1C(=O)c2ccccc2C1(O)c1ccc(Cl)cc1 (stereo unspecified) :
Outgoing: inactive

Incoming: Call for entry COc1cc(/C=C2/SC(c3ccccc3)N(c3cccc(Cl)c3)C2=O)cc(OC)c1OC (stereo unspecified) :
Outgoing: inactive

Further cases:
Incoming: Call for entry CCCCCC(=O)OC[n+]1ccc2c(C)c3[nH]c4ccc(OC)cc4c3c(C)c2c1 :
Outgoing: active

Incoming: Call for entry Cc1ccc(C(=O)CC2=Nc3nnc(CCCCCCCc4nnc5n4C(=O)C(CC(=O)c4ccc(C)cc4)=N5)n3C2=O)cc1 :
Outgoing: inactive

Incoming: Call for entry COc1ccc(N2C(=O)/C(=C/c3ccc(N(CCC#N)CCC#N)cc3)N=C2c2ccccc2)c(OC)c1 :
Outgoing: inactive

Every entry's value here was drawn from ChEMBL document CHEMBL1201862.
